Tested on: CCRF-CEM leukemia
Assay: NCI-60 one-dose screen, 48 h (100 = growth as untreated, 0 = no growth, -100 = all killed)
Settings: 10 µM
About 83,000 compounds went through this panel and 20% of them were active in at least one assay; those are over-represented in the sample as a whole.
Entries whose growth is below 60% take Met; entries at or above 60% take Not met.

Some entries whose results are on file:
{"columns": ["COMPOUND", "CLASSIFICATION"],
 "data": [
  ["COc1cc(-c2nn(-c3cccc(NC(=O)CCNc4ccc(N5CCOCC5)cc4)c3)cc2-c2ccncc2)ccc1Cl", "Met"],
  ["CCOC(=O)C(C)(c1ccccc1)c1ccccc1", "Not met"],
  ["NS(=O)(=O)Oc1ccc2c(ccn2C(=O)C23CC4CC(CC(C4)C2)C3)c1", "Not met"]
]}

Please look at the following compound next.
Data request: Item CC(=O)Nc1ccc2c(c1)C(=O)c1cccc(C(=O)O)c1-2 : growth beneath 60%, strictly?
Data returned: Not met

----------
Tested on: HCT-15 colon
Test: NCI-60 one-dose screen, 48 h (100 = growth as untreated, 0 = no growth, -100 = all killed)
Details: 10 µM
Compounds without any hit were thinned out: in the full panel of roughly 83,000, 20% have a hit.
Reported growth values for a set of compounds
Kindly answer with a numeric value in %, unit omitted.

Below, 3 compounds whose answers are already recorded.
{"columns": ["COMPOUND", "EXPERIMENTAL_RESULT"],
 "data": [
  ["O=C(CCCCNC(=O)c1nc(-c2ccccc2)n(-c2ccccc2)n1)NO", 91.3],
  ["CCN(CC)CCCC(Nc1c2ccc(Cl)cc2nc2ccc(OC)cc12)c1ccc(F)cc1 (stereo not given)", 1.06],
  ["COc1cc(/C=C2\\CCCC3=C2N=C2SC(C)=CN2C3c2cc(OC)c(OC)c(OC)c2)cc(OC)c1OC (stereo not given)", -65.4]
]}

Data request: // lookup growth for CCN(CC)CCCOc1cccc2c1C(=O)c1cccc(OCCCN(CC)CC)c1C2=O
Data returned: 34.5

Data request: // lookup growth for Nc1c(Br)cc(Br)c2c1[nH]c(=O)c1ccccc12
Data returned: 75.2

Data request: // lookup growth for COc1ccc(-c2nnc(SCC(=O)Nc3ccc(C(=O)/C=C/c4ccccc4)cc3)n2-c2ccccc2)cc1OC
Data returned: 86.5

----------
Tested on: MDA-MB-435 melanoma
Test: NCI-60 one-dose screen, 48 h (100 = growth as untreated, 0 = no growth, -100 = all killed)
Settings: 10 µM
The panel holds about 83,000 compounds, 20% with a hit somewhere; the sample as a whole holds those more often.
Entries whose growth is below 30% take condition met; entries at or above 30% take condition not met.

Some entries whose results are on file:
{"columns": ["MOLECULE", "TGT", "CLASSIFICATION"],
 "data": [
  ["COc1cc2cc(Oc3ccc(NC(=O)c4cc(C(F)(F)F)cc(C(F)(F)F)c4)cc3)c(C)nc2cc1OC", "MDA-MB-435 melanoma", "condition not met"],
  ["Cc1nn(-c2ccc(-c3ccc(OC(F)(F)F)cc3)cc2)c2nc(Cc3ccccc3)nc(N)c12", "MDA-MB-435 melanoma", "condition not met"],
  ["CCN(CC)CCNc1ccc(C)c2sc3cc(Cl)ccc3c(=O)c12", "MDA-MB-435 melanoma", "condition met"]
]}

Data request: Item CCOC(=O)c1cc(C(=O)c2ccc(F)cc2F)n2ccccc12 : growth beneath 30%, strictly?
Data returned: condition not met

Data request: Item CCCCN(CCCC)C(=O)[C@H](CC)[C@@H]1CC[C@@H](C)[C@@H]([C@H](C)[C@@H](O)[C@@H](C)C(=O)[C@H](CC)C2O[C@]3(C=C[C@@H](O)[C@]4(CC[C@@](C)([C@H]5CC[C@](O)(CC)[C@H](C)O5)O4)O3)[C@H](C)C[C@@H]2C)O1 (stereo partly drawn) : growth beneath 30%, strictly?
Data returned: condition met

----------
Tested on: RPMI-8226 leukemia
Assay: NCI-60 one-dose screen, 48 h (100 = growth as untreated, 0 = no growth, -100 = all killed)
Conditions: 10 µM
About 83,000 compounds went through this panel and 20% of them were active in at least one assay; those are over-represented in the sample as a whole.
Reported growth values for a set of compounds
Kindly answer with a numeric value in %, unit omitted.

Below, 5 compounds whose answers are already recorded.
{"columns": ["MOLECULE_SMILES", "TGT", "VALUE_UNIT", "EXPERIMENTAL_RESULT"],
 "data": [
  ["CNC(=O)c1cc(Oc2ccc3c(c2)sc2nc(-c4ccc(N)cc4)cn23)ccn1", "RPMI-8226 leukemia", "%", 40.5],
  ["COC(=O)c1cc2oc(/C=C3/SC(=S)N(N)C3=O)cc2n1Cc1ccccc1", "RPMI-8226 leukemia", "%", -4.46],
  ["NS(=O)(=O)c1ccc(Br)cc1", "RPMI-8226 leukemia", "%", 108],
  ["NNC(=O)Oc1c(Cl)cc(Cl)cc1[N+](=O)[O-]", "RPMI-8226 leukemia", "%", 105],
  ["CCCCc1oc2ccccc2c1C(=O)c1cc(I)c(OCCN(CC)CC)c(I)c1", "RPMI-8226 leukemia", "%", -29.5]
]}

Data request: // lookup growth for O=C(Cn1cc(CO)nn1)Nc1nc2ccccc2s1
Data returned: 107

----------
Reported growth values for a set of compounds
Tested on: TK-10 renal
Test: NCI-60 one-dose screen, 48 h (100 = growth as untreated, 0 = no growth, -100 = all killed)
Conditions: 10 µM
About 83,000 compounds went through this panel and 20% of them were active in at least one assay; those are over-represented in the sample as a whole.
Kindly answer with a numeric value in %, unit omitted.

{"columns": ["COMPOUND", "VALUE_UNIT", "EXPERIMENTAL_RESULT"],
 "data": [
  ["O=[N+]([O-])c1ccc2ncccc2c1Cl", "%", 66.7]
]}

Data request: // lookup growth for O=S(=O)(Oc1ccc(-c2ccc3sccc3c2)cc1)c1ccccc1
Data returned: 99.8

Data request: // lookup growth for COc1cc2ncnc(NC3CCC(O)CC3)c2cc1OC (stereo not drawn)
Data returned: 90

Data request: // lookup growth for Cc1cccc(N=Cc2ccccc2O)c1C
Data returned: 121

Data request: // lookup growth for O=C(Nc1ccccc1)Nc1ncnc2c1ncn2-c1ccccc1
Data returned: 75.2

Data request: // lookup growth for CC[C@@H]1NC(=O)[C@H]([C@H](O)[C@H](C)C/C=C/c2ccc(CN3C(=O)CCCC3=O)cc2)N(C)C(=O)[C@H](C(C)C)N(C)C(=O)[C@H](CC(C)C)N(C)C(=O)[C@H](CC(C)C)N(C)C(=O)[C@@H](C)NC(=O)[C@H](C)NC(=O)[C@H](CC(C)C)N(C)C(=O)[C@H](C(C)C)NC(=O)[C@H](CC(C)C)N(C)C(=O)CN(C)C1=O
Data returned: 39.8

Data request: // lookup growth for Nc1nc(Cl)nc2c1ncn2C1O[C@H](CO)[C@@H](O)[C@@H]1F (stereo partly drawn)
Data returned: 64.5

----------
System: OVCAR-4 ovarian
Assay: NCI-60 one-dose screen, 48 h (100 = growth as untreated, 0 = no growth, -100 = all killed)
Settings: 10 µM
About 83,000 compounds went through this panel and 20% of them were active in at least one assay; those are over-represented in the sample as a whole.
MEASURED_PARAMETER: growth (%)
Kindly answer with a numeric value in %, unit omitted.

{"columns": ["COMPOUND", "VALUE_UNIT", "growth"],
 "data": [
  ["C=CCn1c(SCC(=O)Nc2ccc(C(=O)/C=C/c3ccc(OC)cc3)cc2)nnc1-c1ccc(OC)c(OC)c1", "%", 73.8],
  ["CN(C)CCC1(c2ccccc2)CCN(C)C1=O (centres undefined)", "%", 113]
]}

Data request: // lookup growth for Cc1c(O)c(=O)ccn1C1CCC(CC2CCC(n3ccc(=O)c(O)c3C)CC2)CC1 (centres undefined)
Data returned: 32.2

Data request: // lookup growth for CC(=O)O[C@@]12CO[C@@H]1C[C@H](O)[C@@]1(C)C(=O)[C@H](O)C3=C(C)[C@@H](OC(=O)[C@H](O)[C@@H](NC(=O)OC(C)(C)C)c4ccccc4)C[C@@](O)([C@@H](OC(=O)c4ccccc4)C12)C3(C)C (some centres undefined)
Data returned: 58

----------
Reported growth values for a set of molecules
Tested on: BT-549 breast
Experiment: NCI-60 one-dose screen, 48 h (100 = growth as untreated, 0 = no growth, -100 = all killed)
Conditions: 10 µM
The panel holds about 83,000 compounds, 20% with a hit somewhere; the sample as a whole holds those more often. Activity calls are given as the source filed them. Rule for the calls: active = growth percent below 10; inactive = the rest.

Below, 4 molecules whose answers are already recorded.
{"columns": ["MOLECULE", "growth"],
 "data": [
  ["COc1cccc(C2C(C#N)=C(N)Oc3cc(N)ccc32)c1 (stereo not given)", "47.3% (inactive)"],
  ["N#Cc1c(N)nc(-c2cc(F)cc(C(F)(F)F)c2)nc1-c1ccccc1F", "58.9% (inactive)"],
  ["CC(C)(C)c1ccc(S(=O)(=O)N[C@H]2CC[C@H]3[C@@H]4CCc5cc(O)c([N+](=O)[O-])cc5[C@H]4CC[C@]23C)cc1", "67.7% (inactive)"],
  ["O=C1/C=C/[C@@H](O)[C@@H]2C[C@@H](O)C[C@H]2/C=C/CCC[C@@H](C(F)(F)F)O1", "123% (inactive)"]
]}

Next molecule, growth to be filled in.
Data request: // lookup growth for O=C(O)c1cc([N+](=O)[O-])ccc1Oc1ccccc1
Data returned: 92.7% (inactive)
